growth overview
- System: E. coli TESEC Mtb Alr
- protocol_description: growth (OD600 after 10 h); higher = more growth (less inhibition)
- study_conditions: arabinose 100 nM; compound 0.1 mM; raw OD600 reference: median of DMSO wells 0.413, cell-free background 0.052

{"molecule": "Cn1c(=O)c2c(ncn2CC(O)CO)n(C)c1=O (stereo not drawn) [Diprophylline]", "growth": 0.421}
{"molecule": "O=C1NCCN1c1ncc([N+](=O)[O-])s1 [Niridazole]", "growth": 0.119}
{"molecule": "CN1CCc2c(c3ccccc3n2Cc2ccccc2)C1 [Mebhydroline 1,5-naphtalenedisulfonate]", "growth": 0.404}

Recorded values, source the supplement of paper PMC9262897.
